ASSAYED_TARGET: Phosphodiesterase 3 (Homo sapiens, UniProt Q14432+Q13370)
METHOD_NOTES: In vitro inhibition of cyclic AMP phosphodiesterase from human platelets
Threshold-based label: IC50 under 4000 nM gives Met, IC50 not under 4000 nM gives Not met.

{"SUBSTANCE_SMILES": "O=C1CN2Cc3cc(OCCCC(=O)N4CCCCC4)ccc3N=C2N1", "ASSAYED_TARGET": "Phosphodiesterase 3 (Homo sapiens, UniProt Q14432+Q13370)", "CAT": "Met"}
{"SUBSTANCE_SMILES": "CC(C)[C@@H]1C(=O)NC2=Nc3ccc(OCCCC(=O)N(C)C4CCCCC4)cc3CN21", "ASSAYED_TARGET": "Phosphodiesterase 3 (Homo sapiens, UniProt Q14432+Q13370)", "CAT": "Not met"}
{"SUBSTANCE_SMILES": "CN(C(=O)CCCSc1ccc2c(c1)CN1CC(=O)NC1=N2)C1CCCCC1", "ASSAYED_TARGET": "Phosphodiesterase 3 (Homo sapiens, UniProt Q14432+Q13370)", "CAT": "Met"}

Does this molecule meet the criterion IC50 < 4000 nM? CN(C(=O)CCCOc1ccc2nc3n(c(=O)c2c1)CCN3)C1CCCCC1
Not met

Item C[C@H]1C(=O)NC2=Nc3ccc(OCCCC(=O)N(C)C4CCCCC4)cc3CN21 : IC50 beneath 4000 nM, strictly?
Met

Does the reported IC50 of the following molecule sit strictly below 4000 nM? CN(C(=O)CCCOc1ccc2c(c1)CN1CCNC1=N2)C1CCCCC1
Not met

Dear colleague, could you confirm whether IC50 of CN1C(=O)CN2Cc3cc(OCCCC(=O)N(C)C4CCCCC4)ccc3N=C21 falls below 4000 nM? Thanks.
Not met

Identify whether the molecule CN(C(=O)CCCOc1ccc2c(c1)CN1C(=N2)NC(=O)[C@@H]1c1ccccc1)C1CCCCC1 records IC50 below 4000 nM.
Met

Is the reported IC50 for O=C1CN2Cc3cc(OCCCC(=O)N(CCCCCO)C4CCCCC4)ccc3N=C2N1 strictly below 4000 nM?
Met

Hi there! Is IC50 for O=C1CN2Cc3cc(OCCCc4nnnn4C4CCCCC4)ccc3N=C2N1 below 4000 nM, do you know?
Met
